- Tested Target: His-Cdc42 (Homo sapiens, UniProt P60953, Q61L)
- Construct: made in house; host or cells: E. coli
- Sequence (P60953 1-184 isoform P60953-1 Q61L): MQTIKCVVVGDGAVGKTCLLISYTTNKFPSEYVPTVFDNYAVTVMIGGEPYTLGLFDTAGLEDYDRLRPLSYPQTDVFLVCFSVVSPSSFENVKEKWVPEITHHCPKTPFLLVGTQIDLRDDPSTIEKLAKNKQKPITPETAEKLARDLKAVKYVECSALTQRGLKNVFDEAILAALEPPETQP
- Experimental Details: Microscale thermophoresis (MST)
- Assay type: binding
- Experimental Context: read-out: dissociation constant (Kd) for Cdc42; MST, 100 nM labeled His-Cdc42, n = 3
Value Type: pKd
# log scale: pKd equals minus log10 of the concentration in mol/L

Q: Param readout = pKd; param system = His-Cdc42 (Homo sapiens, UniProt P60953, Q61L); param query = `CCN1CCN(c2ncc3c(n2)CCN(Cc2cc(Br)cs2)C3)CC1` ; response: value
Result: 4.55

---

- Experimental Details: pION µSOL kinetic aqueous solubility
- Format: physicochemical
- Experimental Context: aqueous medium; pION µSOL assay, pH 7.4
Value Type: solubility kinetic (µg/mL)
State the answer as a number, implicitly in µg/mL.

Q: solubility kinetic for `CCN1CCN(c2ncc3c(n2)CCN(Cc2cc(Br)cs2)C3)CC1` ?
Result: 37.1
